# measured_target: T1, human CDH6 on tumor cells (OVCAR3 cells, PA-1 cells) (human, UniProt P55285 54-790)
# T1 sequence: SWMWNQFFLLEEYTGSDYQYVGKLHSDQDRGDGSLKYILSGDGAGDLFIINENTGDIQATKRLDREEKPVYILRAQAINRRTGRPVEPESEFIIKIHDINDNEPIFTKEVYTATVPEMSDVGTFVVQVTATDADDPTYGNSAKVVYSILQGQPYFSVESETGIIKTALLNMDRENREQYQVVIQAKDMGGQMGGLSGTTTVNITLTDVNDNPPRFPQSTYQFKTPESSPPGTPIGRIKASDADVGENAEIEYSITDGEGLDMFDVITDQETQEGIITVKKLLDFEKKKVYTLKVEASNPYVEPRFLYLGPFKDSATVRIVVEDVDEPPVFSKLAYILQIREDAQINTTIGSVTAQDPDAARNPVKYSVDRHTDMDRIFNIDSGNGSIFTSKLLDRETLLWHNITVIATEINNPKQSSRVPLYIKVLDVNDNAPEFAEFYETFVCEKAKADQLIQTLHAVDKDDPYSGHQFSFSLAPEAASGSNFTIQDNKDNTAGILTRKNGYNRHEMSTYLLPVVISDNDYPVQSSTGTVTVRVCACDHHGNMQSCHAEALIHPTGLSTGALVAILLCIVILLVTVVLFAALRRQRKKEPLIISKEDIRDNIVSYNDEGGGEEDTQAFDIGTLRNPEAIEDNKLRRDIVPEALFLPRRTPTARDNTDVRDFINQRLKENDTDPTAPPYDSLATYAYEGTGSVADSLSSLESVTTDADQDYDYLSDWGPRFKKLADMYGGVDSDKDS
# assay_text: FACS, PA-1 cells
measured_property: EC50 (pM)
// return numeric value only (unit: pM, not printed)

The examples below pair each entry with its known result.
binder	units_label	endpoint_value
CHI-CDH6-1 (antibody, human IgG1, kappa, V domains shown, also called CHI-hCDH6-1; CH1-CDH6-1) VH: QVQLQQPGAELVRPGSSVKLSCKASGYTFTNYWMHWVKQRPIEGLEWIGDIDPSHSETHYTQKFKDKATLTVDKSSSTAYMQLSSLTSEDSAVYYCARGDLGRFDYWGQGTTLTVSS VL: DIVLTQSPASLAVSLGQRATISCRASESVSIHGTHLMHWYQQKSGQPPKLLIYAASNLESGVPARFSGSGSETDFTFNIHPVEEEDAATYFCQQSFEDPWTFGGGTKLEIKR	pM	100
NOV0712 (antibody, human IgG1, kappa, V domains shown, Positive control, variable regions from WO2018212136A1; also called positive control anti-human CDH6 antibody) VH: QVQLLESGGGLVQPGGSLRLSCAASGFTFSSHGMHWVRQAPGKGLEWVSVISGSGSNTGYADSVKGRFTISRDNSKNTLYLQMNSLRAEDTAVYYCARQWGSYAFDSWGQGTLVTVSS VL: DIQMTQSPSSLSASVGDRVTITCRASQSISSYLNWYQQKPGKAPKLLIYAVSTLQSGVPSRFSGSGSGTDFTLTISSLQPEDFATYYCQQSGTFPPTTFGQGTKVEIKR	pM	1460
CHI-CDH6-10 (antibody, human IgG1, kappa, V domains shown, also called chimeric antibody of murine CDH6-10) VH: QVQLQQPGAELVKPGTSVKMSCKASGYTFTSDWIAWVKQRPGQGLEWIGDIYPGSGRTHNNEKFNFKATLTVDTSSNTAYMQLSSLTSEDSAVYFCARPMLGRFDYWGQGTTLTVSS VL: DIVLTQSPASLAVSLGQRATISCRASESVSIHGTHLMHWYQQKPGQPPKLLIYAASNLESGVPARFSGSGSETDFTLNIHPVEEEDAATYFCQQSFEDPFTFGSGTKLEIKR	pM	80
CHI-CDH6-4 (antibody, human IgG1, kappa, V domains shown, also called CH1-CDH6-4; chimeric antibody of murine CDH6-4) VH: QVQLQQSGPELVKPGASVKISCKASGYAFSNFWMNWVKQRPGKGLEWIGWIYPGDGDTNYNGKFKDKATLTADKSSSTAYIQLSSLTSEDSAVYFCARLYDAWGFFDYWGQGTTLTVSS VL: QIVLTQSPAIMSASPGQKVTITCSASSSVNYMHWYQQKLGSSPKLWIYDKSKLAPGVPARFSGSGSGTSYSLTISSMEAEDAASYFCHQWSSYPPMTFGGGTKLEIKR	pM	2480

# input binder: CHI-CDH6-9 (antibody, human IgG1, kappa, V domains shown, also called chimeric antibody of murine CDH6-9) VH: QVQLQQPGAELVKPGASVKLSCKASGYTFTGYWMHWVRQRPGQGLEWIGEINPNNGGTNCNEQFKNKATLTVDKSSSTAYMQLSSLTSEDSAVFYCTISFGNYLFFDVWGAGTTVTVSS VL: DIQMTQSPASLAASVGETITITCQASENIYFSLAWYQQKQGKSPQLLIYNANTLEDGVPSRFVGSGSGTQYSMKINSIQPEDTATYFCDQTYDFPWTFGGGTKLEIKR ; wanted: its EC50 160

Entry source: patent US20260234242A1
